- Test Summary: Human HepG2 cell viability assay in 384 well format
- Assay type: toxicity, cell-based
- Design: dose 125 nL, time 70.5 hour; concentration not given beside the values
- Experimental Parameters: HepG2 cells, read-out: Inhibition
Assay Metric: cytotoxicity at 70.5 h (%)
Give bare numbers, in %.

>  <Compound>
O=C(N1CCOCC1)[C@@]12CCO[C@@H]1CCN(CC1CCCCC1)C2

>  <Assay Metric>
cytotoxicity at 70.5 h

>  <Val>
27.8

$$$$
>  <Compound>
CN(C)C(=O)C1CCN(C(=O)c2c[nH]c3cc(Cl)ccc23)CC1

>  <Assay Metric>
cytotoxicity at 70.5 h

>  <Val>
-8.29

$$$$
>  <Compound>
Cc1cc(NC(=O)CN2CCCC2Cn2nc(C)nc2C)on1 (centres undefined)

>  <Assay Metric>
cytotoxicity at 70.5 h

>  <Val>
-6.45

$$$$
>  <Compound>
CCN(CC)S(=O)(=O)CCNC(=O)c1cc2cccc(F)c2o1

>  <Assay Metric>
cytotoxicity at 70.5 h

>  <Val>
-1.2

$$$$
>  <Compound>
O=C(Nc1cc(C(F)(F)F)ccc1Cl)c1ccc(N2CCOCC2)nn1

>  <Assay Metric>
cytotoxicity at 70.5 h

>  <Val>
-0.689

$$$$

Could I get cytotoxicity at 70.5 h for every one of these entries?
1. Cc1cc(C(=O)N2CCN(c3nc4c(F)cccc4s3)CC2)no1
2. c1cnc(-c2nn3c(CN4CCCCCC4)nnc3s2)cn1
3. O=C(C1CCCC1)N1CCOc2cccc(F)c21
4. COc1ncccc1C(=O)N1CCCC1c1nc(-c2ccccc2)no1 (centres undefined)
5. Cc1cnn(CC2CCCN2CC(=O)NC2CCN(C3CC3)CC2)c1 (centres undefined)

Response:
[-7.99, -8.05, -7.17, -5.54, -3.72]

----------
Provide the reported cytotoxicity at 70.5 h of each item.
- Test Summary: Human HepG2 cell viability assay in 384 well format
- Format: toxicity, cell-based
- Design: dose 125 nL, time 70.5 hour; concentration not given beside the values
- Experimental Parameters: HepG2 cells, read-out: Inhibition
Numbers only, in %.

>  <Compound>
Fc1ccc(N2CCCN(Cc3ccc(-c4cc[nH]n4)o3)CC2)cc1

>  <Assay Metric>
cytotoxicity at 70.5 h

>  <Unit Annotation>
%

>  <Val>
-0.367

$$$$
>  <Compound>
Cc1cnn(-c2cncc(C(N)=O)c2)c1

>  <Assay Metric>
cytotoxicity at 70.5 h

>  <Unit Annotation>
%

>  <Val>
-5.78

$$$$
>  <Compound>
Cn1cccc1C(=O)NCc1cn2c(n1)CN(CC1CCOCC1)CC2

>  <Assay Metric>
cytotoxicity at 70.5 h

>  <Unit Annotation>
%

>  <Val>
-78.7

$$$$

Could I get cytotoxicity at 70.5 h for every one of these entries?
1. CNCC(=O)N1CCCC(c2nccnc2Oc2cccc(F)c2)C1 (stereo not drawn)
2. O=C1CCCN1C1CCCN(CCn2cc(Cl)cn2)C1 (stereo not drawn)
3. CCN(Cc1ccco1)C(=O)NCC(C)N1CCc2sccc2C1 (stereo not drawn)
4. COC1CCN(C(=O)c2cc(-c3ccc(Cl)cc3)on2)CC1
5. CC1CCCN1C1CCN(C(=O)c2cccc(F)c2)CC1 (stereo not drawn)
6. CC(C)C[C@H](N)C(=O)N1CC2(CCNCC2)c2cc(Cl)ccc21
7. CCOc1ccccc1C(C(=O)O)N(C)Cc1cc(C)[nH]n1 (stereo not drawn)

Response:
1: -10.3; 2: -26.9; 3: 13.6; 4: -8.24; 5: 6.94; 6: 3.38; 7: -5.35

Could I get cytotoxicity at 70.5 h for every one of these entries?
1. O=C(Cn1cnc(NC(=O)c2ccccn2)n1)NCc1ccccc1
2. Cn1cccc1-c1cc(C(=O)N2CCCC2c2cccnc2)[nH]n1 (stereo not drawn)
3. COC(=O)CN1CCSC(c2ccccc2)C1 (stereo not drawn)
4. C[C@@H]1CN(C(=O)Cc2ccsc2)C[C@]12CCN(CCN(C)C)C2=O
5. CN(CC(F)(F)F)C(=O)CNC(=O)N1CCC(N2CCCC2)C1 (stereo not drawn)

Response:
-12.9
-4.46
-13.2
-10.3
-9.53
